- assay-target: human recombinant MC3R (CHO-K1/Gα15 stable cell line, GenScript) (human, UniProt P41968 1-323)
- Sequence (P41968 whole entry): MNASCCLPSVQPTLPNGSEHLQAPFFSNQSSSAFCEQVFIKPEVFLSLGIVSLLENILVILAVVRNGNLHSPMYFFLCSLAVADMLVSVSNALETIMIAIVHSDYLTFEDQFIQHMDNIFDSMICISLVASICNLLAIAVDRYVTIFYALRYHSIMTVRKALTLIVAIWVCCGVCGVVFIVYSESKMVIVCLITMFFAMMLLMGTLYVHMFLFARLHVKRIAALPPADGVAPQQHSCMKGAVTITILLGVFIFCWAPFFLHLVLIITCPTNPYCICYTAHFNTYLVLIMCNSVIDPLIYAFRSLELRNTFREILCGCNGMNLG
- procedure-details: cell-based or functional assay
Positions of bridges follow the written chain, without caps; N, C: chain ends. Non-standard residues stand in square brackets, D forms with d. Lys(N3) = [N-]=[N+]=NCCCC[C@H](N)C(=O)O; Orn(N3) = [N-]=[N+]=NCCC[C@H](N)C(=O)O; hArg = N=C(N)NCCCC[C@H](N)C(=O)O; Hpra = C#CCC[C@H](N)C(=O)O; Nle = CCCC[C@H](N)C(=O)O; Pra = C#CC[C@H](N)C(=O)O
Give MC3R IC50 for every item shown.
Dear colleague, please send the value followed by its unit.

Prompt: # MC3R IC50 lookup, item Ac-[Nle][Lys(N3)]H[dF][hArg]W[Pra]K-NH2 (triazole 2-7; not fully specified; printed as Ac-Nle-[Lys(N3)-His-DPhe-HArg-Trp-Pra]-Lys-NH2) [KR-054]
Completion: 67.8 nM

Prompt: # MC3R IC50 lookup, item Ac-[Nle]EHFRWGKC-NH2 (not fully specified (bridges); printed as -Cyclo(-Ac-Nle-Glu-His-Phe-Arg-Trp-Gly-Lys-Cys)-NH2; also: cyclo(...) including Ac, ring type and places not given here) [KR-036]
Completion: 328 nM

Prompt: # MC3R IC50 lookup, item Ac-[Nle][Orn(N3)]H[dF]RW[Pra]K-NH2 (triazole 2-7; not fully specified; printed as Ac-Nle-[Orn(N3)-His-DPhe-Arg-Trp-Pra]-Lys-NH2) [KR-065]
Completion: 91.6 nM

Prompt: # MC3R IC50 lookup, item Ac-[Nle][Orn(N3)]H[dF]RW[Hpra]K-NH2 (triazole 2-7; not fully specified; printed as Ac-Nle-[Orn(N3)-His-DPhe-Arg-Trp-Hpra]-Lys-NH2) [KR-068]
Completion: 27.6 nM
